Below, each entry is listed alongside its reported inhibition.
- targetOrSystem: Protein-arginine deiminase type-1 (Homo sapiens)
- procedureText: inhibitors of PAD1, PAD2, PAD3 and PAD4, late-stage follow-up, selectivity assay for PAD4 inhibitor project, biochemical, colorimetric, BAEE substrate, recombinant enzymes (AID 588560)
- details: recombinant PAD1-4, BAEE citrulline colorimetric, 15 min; PAD1; at 10 µM; hits give high values
# output: bare number, implied unit %

Below are worked cases with known answers.
Challenge: So what does the record say about inhibition for `O=C1C(Br)=CC(=O)c2ncccc21` ?
Response given: -57

Challenge: Now the same for `NC1=CC(=O)c2ccc(-c3cccc(C(=O)O)n3)nc2C1=O`
Response given: 71

Challenge: Now the same for `O=C1C(O)=C(O)C(=O)c2ncccc21`
Response given: 39

Challenge: Now the same for `COC(=O)c1nc(C(=O)OC)c(N)c(-c2ccccc2Br)c1C`
Response given: -6

Challenge: Now the same for `COC(=O)c1cccc(-c2ccc3ccc(Br)c(O)c3n2)n1`
Response given: -5

Others:
Challenge: So what does the record say about inhibition for `NC1=CC(=O)c2ccc(-c3cc(C(=O)O)ccc3N)nc2C1=O` ?
Response given: -13

Challenge: Now the same for `COC(=O)c1nc(-c2ccc3c(n2)C(=O)C(Br)=CC3=O)c2[nH]c3ccccc3c2c1C`
Response given: -24

Challenge: Now the same for `COC(=O)c1cccc(-c2ccc3c(n2)C(=O)C(N)=CC3=O)n1`
Response given: 75

###

- targetOrSystem: Protein-arginine deiminase type-3 (Homo sapiens)
- procedureText: inhibitors of PAD1, PAD2, PAD3 and PAD4, late-stage follow-up, selectivity assay for PAD4 inhibitor project, biochemical, colorimetric, BAEE substrate, recombinant enzymes (AID 588560)
- details: recombinant PAD1-4, BAEE citrulline colorimetric, 15 min; PAD3; at 10 µM
Active and inactive are the calls of the source.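 How the source made its calls: active means inhibition of 50% or more against any one of four protein arginine deiminase enzymes; inactive means the rest.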
Please reply with one of these outcomes: active, inactive

Example results:
Challenge: Hey, what did the test say about `O=C1C(Br)=CC(=O)c2ncccc21` ?
Response given: inactive

Challenge: Now the same for `NC1=CC(=O)c2ccc(-c3ccccn3)nc2C1=O`
Response given: active

Challenge: Now the same for `COC1=CC(=O)c2nc(C#N)ccc2C1=O`
Response given: active

Challenge: Now the same for `COC(=O)c1cccc(-c2ccc3ccc(Br)c(O)c3n2)n1`
Response given: inactive

Now, please, on to the next molecule.
Challenge: Hey, what did the test say about `COC(=O)c1nc(C(C)=O)c2[nH]c3ccccc3c2c1C` ?
Response given: inactive

###

Below, each entry is listed alongside its reported inhibition.
- targetOrSystem: Protein-arginine deiminase type-3 (Homo sapiens) (UniProt Q9ULW8)
- Sequence (Q9ULW8 whole entry, looked up): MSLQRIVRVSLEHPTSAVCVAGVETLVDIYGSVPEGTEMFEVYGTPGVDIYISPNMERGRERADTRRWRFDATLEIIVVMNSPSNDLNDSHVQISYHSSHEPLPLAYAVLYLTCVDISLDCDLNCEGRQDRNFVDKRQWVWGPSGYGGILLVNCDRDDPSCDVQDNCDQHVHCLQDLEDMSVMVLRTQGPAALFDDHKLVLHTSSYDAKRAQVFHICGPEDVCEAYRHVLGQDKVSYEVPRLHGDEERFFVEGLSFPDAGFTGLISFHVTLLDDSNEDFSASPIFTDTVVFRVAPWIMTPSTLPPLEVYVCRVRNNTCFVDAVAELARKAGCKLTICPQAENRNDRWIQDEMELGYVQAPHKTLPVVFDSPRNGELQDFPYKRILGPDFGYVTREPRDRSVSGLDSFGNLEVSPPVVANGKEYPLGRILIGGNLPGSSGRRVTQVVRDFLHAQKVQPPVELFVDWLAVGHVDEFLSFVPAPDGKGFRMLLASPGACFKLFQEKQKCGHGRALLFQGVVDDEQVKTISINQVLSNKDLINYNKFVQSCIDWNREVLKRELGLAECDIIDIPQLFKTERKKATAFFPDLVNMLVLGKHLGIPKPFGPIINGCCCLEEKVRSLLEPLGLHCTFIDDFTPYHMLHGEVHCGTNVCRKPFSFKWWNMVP
- procedureText: inhibitors of PAD1, PAD2, PAD3 and PAD4, late-stage follow-up, selectivity assay for PAD4 inhibitor project, biochemical, colorimetric, BAEE substrate, recombinant enzymes (AID 588560)
- details: recombinant PAD1-4, BAEE citrulline colorimetric, 15 min; PAD3; at 10 µM; hits give high values
# output: bare number, implied unit %

Below are worked cases with known answers.
Challenge: So what does the record say about inhibition for `O=C1C=C(Br)C(=O)c2ncccc21` ?
Response given: 76

Challenge: Now the same for `COC(=O)c1cccc(-c2ccc3c(n2)C(=O)C(N)=CC3=O)n1`
Response given: 84

Challenge: Now the same for `O=C1C(O)=C(O)C(=O)c2ncccc21`
Response given: 96

Challenge: Now the same for `COC1=C(Br)C(=O)c2ncccc2C1=O`
Response given: 7

Others:
Challenge: So what does the record say about inhibition for `COC(=O)c1nc(C(=O)OC)c(N)c(-c2ccccc2Br)c1C` ?
Response given: -30

Challenge: Now the same for `COc1ccc2nc(C#N)ccc2c1[N+](=O)[O-]`
Response given: 16
